Sourced from patent US20250361230A1

Biological target: LATS1 (Homo sapiens, UniProt O95835)
Sequence (O95835 1-1130): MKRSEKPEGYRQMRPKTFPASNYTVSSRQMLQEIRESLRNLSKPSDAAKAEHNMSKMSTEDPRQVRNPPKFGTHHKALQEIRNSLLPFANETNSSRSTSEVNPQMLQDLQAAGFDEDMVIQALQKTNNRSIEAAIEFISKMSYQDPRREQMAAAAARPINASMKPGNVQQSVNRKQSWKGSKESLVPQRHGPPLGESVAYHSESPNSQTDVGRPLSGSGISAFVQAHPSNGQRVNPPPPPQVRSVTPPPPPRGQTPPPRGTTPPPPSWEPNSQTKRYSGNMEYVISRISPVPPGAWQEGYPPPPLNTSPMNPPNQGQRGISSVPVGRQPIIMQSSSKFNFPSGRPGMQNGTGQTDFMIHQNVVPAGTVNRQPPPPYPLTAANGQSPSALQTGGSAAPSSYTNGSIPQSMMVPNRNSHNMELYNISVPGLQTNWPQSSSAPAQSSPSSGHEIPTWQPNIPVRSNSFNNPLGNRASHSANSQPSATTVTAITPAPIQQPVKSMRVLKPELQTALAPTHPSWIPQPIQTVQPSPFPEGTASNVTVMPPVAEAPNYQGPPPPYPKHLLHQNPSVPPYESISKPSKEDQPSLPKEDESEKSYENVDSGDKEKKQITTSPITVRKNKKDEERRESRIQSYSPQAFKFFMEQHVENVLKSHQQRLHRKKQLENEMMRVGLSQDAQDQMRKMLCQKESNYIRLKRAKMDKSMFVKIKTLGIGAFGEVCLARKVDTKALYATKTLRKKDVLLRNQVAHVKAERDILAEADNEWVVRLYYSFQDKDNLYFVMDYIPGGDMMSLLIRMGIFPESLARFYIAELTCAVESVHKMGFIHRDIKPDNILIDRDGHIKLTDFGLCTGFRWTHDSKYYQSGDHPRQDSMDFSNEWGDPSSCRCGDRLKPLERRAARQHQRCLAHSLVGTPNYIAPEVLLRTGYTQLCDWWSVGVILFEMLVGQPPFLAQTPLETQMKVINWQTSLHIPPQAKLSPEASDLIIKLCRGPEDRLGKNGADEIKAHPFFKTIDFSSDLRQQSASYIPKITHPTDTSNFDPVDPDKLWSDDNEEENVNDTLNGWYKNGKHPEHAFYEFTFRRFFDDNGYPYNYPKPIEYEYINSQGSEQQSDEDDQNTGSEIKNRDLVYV
Test: RBC HotSpot kinase assay (33P-ATP, P81 filter-binding), LATS1
Format: biochemical
Details: Table 28, biochemical kinase assay; read-out: LATS1 IC50
PARAMETER: IC50 (nM)

Answered examples (10):
{"COMPOUND": "COC(=O)c1c[nH]c2nccc(-c3ccc([C@@]4(O)[C@H](C)CN(C(=O)CN)C[C@@H]4C)c(C)c3)c12", "PARAMETER": "IC50", "EXPERIMENTAL RESULT": 6.9}
{"COMPOUND": "C[C@@H]1CN(Cc2ccccn2)C[C@H](C)[C@@]1(O)c1c(F)cc(-c2ccnc3[nH]cc(F)c23)cc1F", "PARAMETER": "IC50", "EXPERIMENTAL RESULT": 10.9}
{"COMPOUND": "Cc1cc(-c2ccnc3[nH]cc(F)c23)cc(F)c1[C@@]1(O)[C@H](C)CN(C(=O)CN(C)C)C[C@@H]1C", "PARAMETER": "IC50", "EXPERIMENTAL RESULT": 11.3}
{"COMPOUND": "C[C@@H]1CN(C(=O)CN(C)C)C[C@H](C)C1(O)c1c(F)cc(-c2ccnc3[nH]cc(F)c23)cc1F (some centres unmarked)", "PARAMETER": "IC50", "EXPERIMENTAL RESULT": 12.3}
{"COMPOUND": "C[C@@H]1CN(C2CCC2)C[C@H](C)[C@@]1(O)c1ccc(-c2ccnc3[nH]cc(F)c23)cc1Cl", "PARAMETER": "IC50", "EXPERIMENTAL RESULT": 2.6}
{"COMPOUND": "COC(=O)c1c[nH]c2nccc(-c3ccc(CN)cc3)c12", "PARAMETER": "IC50", "EXPERIMENTAL RESULT": 27.4}
{"COMPOUND": "Cc1cc(-c2ccnc3[nH]cc(F)c23)cc(F)c1[C@@]1(O)[C@H](C)CN(C2CCNCC2)C[C@@H]1C", "PARAMETER": "IC50", "EXPERIMENTAL RESULT": 7.9}
{"COMPOUND": "CC(C)c1cc(-c2ccnc3[nH]cc(-c4ccccc4)c23)ccc1CN", "PARAMETER": "IC50", "EXPERIMENTAL RESULT": 17}
{"COMPOUND": "C[C@@H]1CN(C2COC2)C[C@H](C)C1(O)c1cnc(-c2ccnc3[nH]cc(F)c23)cc1F (some centres unmarked)", "PARAMETER": "IC50", "EXPERIMENTAL RESULT": 98.5}
{"COMPOUND": "Cc1cc(-c2ccnc3[nH]cc(F)c23)ncc1[C@@]1(O)[C@H](C)CN(C2CCC2)C[C@@H]1C", "PARAMETER": "IC50", "EXPERIMENTAL RESULT": 2.9}

A = C[C@@H]1CN(C)C[C@H](C)[C@@]1(O)c1ccc(-c2ccnc3[nH]cc(F)c23)cc1F
B = Cc1cc(C2CCNCC2)ccc1-c1ccnc2[nH]ccc12
Query: Problem: Given the entries A and B , determine which has the lower reported IC50. To answer, give the label that identifies your chosen option.
Response: A
